Source: PubChem BioAssay (NCATS)

Experiment: qHTS Assay for Identifying Gametocytocidal Compounds (AID 743244);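 note: % is set by controls: 0 for no effect and ±100 for the full control effect; actives lower the fluorescent signal which means gametocytes are killed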
Conditions: P. falciparum 3D7 stage III-V gametocytes, alamarBlue, 72 h; active compounds read low
Inconclusive results are not listed.
Give measured max response for each item. Keep answers brief.
Answers are plain numbers, in %.

molecule	assay_result
CCCCNCC(O)c1ccc(O)cc1 (centres undefined)	15.5
C[C@@H]1O[C@@H](O[C@H]2C[C@@H](O)[C@]3(CO)[C@@H]4C(CC[C@]3(O)C2)[C@@]2(O)CC[C@H]([C@@H]3COC(=O)C3)[C@@]2(C)C[C@H]4O)[C@H](O)[C@H](O)[C@H]1O (some centres undefined)	22.5
C#CCN[C@H](C)Cc1ccccc1	19.2
CCNCC(O)c1cccc(O)c1 (centres undefined)	-3.84
O=C(NC(=O)c1c(F)cccc1F)Nc1ccc(Cl)c(Oc2ncc(C(F)(F)F)cc2Cl)c1	-9.15

Field: max response. Fill in for each record below.
1. C[C@]12C=CC(=O)C=C1CC[C@@H]1[C@@H]2CC[C@]2(C)OC(=O)CC[C@@H]12
2. O=[N+]([O-])c1cc(I)c(O)c(I)c1
3. CC(N)[C@H](O)c1ccc(O)c(O)c1 (some centres undefined)
4. C[C@H]1CC[C@]2(NC1)O[C@H]1C[C@H]3[C@@H]4CC[C@H]5C[C@@H](O[C@@H]6O[C@H](CO)[C@H](O[C@@H]7O[C@H](CO)[C@@H](O)[C@H](O[C@@H]8OC[C@@H](O)[C@H](O)[C@H]8O)[C@H]7O[C@@H]7O[C@H](CO)[C@@H](O)[C@H](O)[C@H]7O)[C@H](O)[C@H]6O)CC[C@]5(C)[C@H]4CC[C@]3(C)[C@H]1[C@@H]2C
5. CCOC(=O)c1ccccc1C(=O)OCC
6. C[C@H]1CC[C@]2(NC1)O[C@H]1C[C@H]3[C@@H]4CC[C@H]5C[C@@H](O)CC[C@]5(C)[C@H]4CC[C@]3(C)[C@H]1[C@@H]2C
7. C[C@]12CC[C@H](O)C[C@H]1CC[C@@H]1[C@@H]2CC[C@]2(C)[C@@H](c3ccc(=O)oc3)C[C@H]3O[C@]132

### Response
1: -1.22; 2: 0.0812; 3: 7.97; 4: 6.32; 5: 6.33; 6: 2.92; 7: 10.6

Field: max response. Fill in for each record below.
1. C[N+]1(C)CCN(c2ccccc2)CC1
2. CN(C)[C@H](Cc1ccccc1)c1ccccc1
3. O=[N+]([O-])c1ccc(F)c([N+](=O)[O-])c1
4. CCC1(CC)C(=O)NC(=O)N(C)C1=O
5. CC(=O)c1c(O)c(C)c(O)c(Cc2c(O)c3c(c(C(=O)/C=C/c4ccccc4)c2O)OC(C)(C)C=C3)c1O

### Response
1: -6.92; 2: -4.16; 3: 6.65; 4: -12.2; 5: 17.7

====

Assay: MultiTox-Fluor Cytotoxicity Assay - LYMP1-001 - Live Cells (AID 947)
Settings: LYMP1-001 lymphoblastoid cells, live-cell protease fluorescence viability; series mostly up to 92.2 µM
Inconclusive results are not listed. Calls of active or inactive are those of the source. Calls follow the shape of the dose curve; as a rule, active = well fitted cell-killing curve with a large enough effect; inconclusive = small, poorly fitted or top-dose-only effect; inactive = flat fitted curve, though single readings scatter.
Respond only with the outcome that fits, drawn from active, inactive

Use the examples below as a reference point.
molecule	assigned_class
O=C1C2CC=CCC2C(=O)N1SC(Cl)(Cl)Cl (configuration not stated)	active
O=C1CCO1	inactive
C[C@H]1CCC[C@H](O)CCCCCc2cc(O)cc(O)c2C(=O)O1	inactive

### Prompt Give the logged outcome of this assay for the following molecule: O=[N+]([O-])c1ccc(F)c([N+](=O)[O-])c1
### Response inactive

====

Assay: Cell Viability - Hek293 (AID 427);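 note: potency is the fitted concentration of half-maximal effect; cells exposed to compound for 40 hours at 37 °C before reading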
Conditions: qHTS
Records with an inconclusive call do not appear. Activity calls are given as the source filed them.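 Rule for the calls: active = compounds whose dose-response curve shows a full or clear partial loss of cell viability, called from curve shape rather than a numeric limit; inconclusive = weak partial curves or an effect only at the top dose; inactive = no dose-dependent loss of viability.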
Give measured Potency for each item. Keep answers brief.

Observe how each entry below is paired with its result.
ClC=C(Cl)Cl > 92 µM (inactive)
O=[N+]([O-])c1ccccc1 > 92 µM (inactive)
CCOC(=O)c1ccccc1C(=O)OCC > 92 µM (inactive)
COC1=CC(=O)O[C@@H](/C=C/c2ccccc2)C1 > 92 µM (inactive)

Continue with the molecule presented below.
What the record says about NNC(N)=O : Potency is > 92 µM (inactive)

====

Test: Drug repurposing screens with cells derived from glioblastoma tumor samples (AID 1345199); note: % is set by controls: 0 for no effect and ±100 for the full control effect; nearly all actives have a fitted effect of over 40% in size
Conditions: GBM patient neurospheres viability, ATP luminescence, 48 h; at 45.9 µM (top of the series); tumour line B
Procedure: CD133+ cells were isolated from GBM patient biopsies and cultured as neurospheres. Neurospheres from four patients were used to screen the NCATS pharmaceutical collection (NPC) library of approved drugs and bioactive compounds. […] The neurospheres were incubated with drugs for 48 hours in 1536-well format, then assayed with an ATP content cell viability assay. […]
Results filed as inconclusive are left out.
Friendly reminder: activity, negative = cell killing below -10% is rule met, at or above is rule not met.

Use the examples below as a reference point.
compound	assigned_class
CCOc1ccc2c3c1O[C@H]1[C@@H](O)C=C[C@H]4[C@@H](C2)N(C)CC[C@@]341	rule met
O=[N+]([O-])c1ccc(F)c([N+](=O)[O-])c1	rule met
CC(Cc1ccccc1)NC=O (configuration not stated)	rule met
c1csc(C2(N3CCCCC3)CCCCC2)c1	rule met
S=C=S	rule not met

### Prompt is_below(activity, negative = cell killing, -10%) for CCC/C=C/C=C/C(=O)O[C@H]1/C(=C/C(=O)OC)C[C@H]2C[C@H]([C@@H](C)O)OC(=O)C[C@H](O)C[C@@H]3C[C@H](OC(C)=O)C(C)(C)[C@](O)(C[C@@H]4C/C(=C/C(=O)OC)C[C@H](/C=C/C(C)(C)[C@]1(O)O2)O4)O3 ?
### Response rule not met

### Prompt is_below(activity, negative = cell killing, -10%) for OC[C@@H](O)[C@H]1O[C@@H]2O[C@@H](C(Cl)(Cl)Cl)O[C@@H]2[C@H]1O ?
### Response rule met

### Prompt is_below(activity, negative = cell killing, -10%) for CC(=O)O[C@H]1CC[C@H]2[C@@H]3CCC4=CC(=O)CCC4=C3C=C[C@]12C ?
### Response rule met

====

Test system: CP269
Assay: qHTS profiling for inhibitors of Plasmodium falciparum proliferation (AID 504749);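 note: 0% = DMSO vehicle and full inhibition = artemisinin control; nearly all actives have a fitted effect of over 60% in size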
Details: P. falciparum in erythrocytes, SYBR Green DNA, 72 h; series mostly up to 28.7 µM
Records with an inconclusive call do not appear. Calls of active or inactive are those of the source. The call rests on the fitted dose curve; in most records, active means well fitted inhibition curve with a large enough effect; inconclusive means small, poorly fitted or top-dose-only effect; inactive means flat fitted curve, though single readings scatter.
measured_parameter: outcome

Observe how each entry below is paired with its result.
compound	measurement_target	outcome
CC(C)CCON=O	CP269	inactive
CCC1(c2ccccc2)C(=O)NC(=O)N(C(=O)c2ccccc2)C1=O (centres undefined)	CP269	inactive
O=[N+]([O-])c1cc(I)c(O)c(I)c1	CP269	inactive
COC([CH2][Hg])CNC(=O)c1ccccc1OCC(=O)O (centres undefined)	CP269	inactive
Clc1ccc(C2(Cn3cncn3)OCCO2)c(Cl)c1	CP269	inactive

Field: outcome. Fill in for each record below.
1. CCCCCl
2. O=C1CN=C(c2ccccc2)c2cc(Cl)ccc2N1CC1CC1
3. CC(Cc1ccccc1)NC=O (centres undefined)
4. CC1CCC(C(C)C)C(OC(=O)c2ccccc2N)C1 (centres undefined)
5. O=C1CC[C@@]2(O)C3Cc4ccc(O)c5c4C2(CCN3CC2CC2)[C@H]1O5 (some centres undefined)
6. CCC(N)Cc1c[nH]c2ccccc12 (centres undefined)

### Response
1: inactive; 2: inactive; 3: inactive; 4: inactive; 5: inactive; 6: inactive

Field: outcome. Fill in for each record below.
1. C[C@H]1CCC[C@H](O)CCCCCc2cc(O)cc(O)c2C(=O)O1
2. O=[N+]([O-])c1ccc(F)c([N+](=O)[O-])c1

### Response
1. inactive
2. inactive

What the record says about CCC1(c2ccccc2)C(=O)NC(=O)NC1=O : outcome is inactive

====

Molecular target: Tyrosine-protein phosphatase non-receptor type substrate 1 (Homo sapiens) + Leukocyte surface antigen CD47 (Homo sapiens) (UniProt P78324+Q08722)
Sequence (P78324 whole entry, looked up): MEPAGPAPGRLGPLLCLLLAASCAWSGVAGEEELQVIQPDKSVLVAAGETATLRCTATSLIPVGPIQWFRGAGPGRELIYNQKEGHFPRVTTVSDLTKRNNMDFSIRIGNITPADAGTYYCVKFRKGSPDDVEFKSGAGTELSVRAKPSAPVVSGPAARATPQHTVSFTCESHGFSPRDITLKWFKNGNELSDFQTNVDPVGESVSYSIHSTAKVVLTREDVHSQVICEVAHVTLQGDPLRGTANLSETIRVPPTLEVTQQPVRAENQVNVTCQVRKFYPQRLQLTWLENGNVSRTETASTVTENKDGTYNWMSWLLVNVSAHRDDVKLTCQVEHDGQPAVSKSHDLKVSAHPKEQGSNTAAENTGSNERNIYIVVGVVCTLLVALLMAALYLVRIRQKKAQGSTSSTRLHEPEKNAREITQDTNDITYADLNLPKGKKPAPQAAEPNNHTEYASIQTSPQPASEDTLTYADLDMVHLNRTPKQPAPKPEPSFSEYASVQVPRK
Sequence (Q08722 whole entry, looked up): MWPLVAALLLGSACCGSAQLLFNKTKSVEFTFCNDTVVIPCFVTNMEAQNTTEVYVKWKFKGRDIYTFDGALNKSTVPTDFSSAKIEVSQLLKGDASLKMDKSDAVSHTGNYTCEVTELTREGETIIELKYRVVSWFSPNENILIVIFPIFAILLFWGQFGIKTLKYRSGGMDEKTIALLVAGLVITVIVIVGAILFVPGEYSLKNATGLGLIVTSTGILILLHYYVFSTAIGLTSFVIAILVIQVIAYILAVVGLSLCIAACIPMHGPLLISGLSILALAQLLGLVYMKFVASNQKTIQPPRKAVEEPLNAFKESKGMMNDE
Assay: CD47-SIRPalpha protein protein interaction - Alpha assay qHTS validation (AID 1347059);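 note: bead proximity luminescence from CD47 binding SIRPalpha after compound preincubation with SIRPalpha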
Details: AlphaScreen CD47-His/biotin-SIRPalpha binding, LOPAC; series mostly up to 38.3 µM
Inconclusive results are not listed. Active and inactive are the calls of the source. Calls come from the whole dose curve; as a rule, active = well fitted inhibition curve with a large enough effect; inconclusive = small, poorly fitted or top-dose-only effect; inactive = flat fitted curve, though single readings scatter.
Respond only with the outcome that fits, drawn from active, inactive

compound	assigned_class
CNc1ccc2oc(C[C@H]3O[C@@]4(CC[C@H]3C)O[C@H]([C@H](C)C(=O)c3ccc[nH]3)[C@H](C)C[C@H]4C)nc2c1C(=O)O	inactive
OC1CCCCC1N1CCC(c2ccccc2)CC1 (stereo unspecified)	inactive
CC(=O)c1c(O)c(C)c(O)c(Cc2c(O)c3c(c(C(=O)/C=C/c4ccccc4)c2O)OC(C)(C)C=C3)c1O	active
O=C(NC1CN2CCC1CC2)c1cc2ccoc2cn1 (stereo unspecified)	inactive
CN1C2CCC1CC(OC(c1ccccc1)c1ccccc1N)C2 (stereo unspecified)	inactive
CCCN(CCC)C1CCc2cccc(O)c2C1 (stereo unspecified)	inactive
Clc1cc(I)cc(Cl)c1NC1=NCCN1	inactive
OCc1cnc[nH]1	inactive

### Prompt Give the logged outcome of this assay for the following compound: CN(C(=O)Cc1ccc(Cl)c(Cl)c1)C(CN1CCCC1)c1cccc(OCC(=O)O)c1 (stereo unspecified)
### Response inactive

### Prompt Give the logged outcome of this assay for the following compound: N[C@@]1(C(=O)O)CC[C@@H](C(=O)O)C1
### Response inactive

### Prompt Give the logged outcome of this assay for the following compound: c1ccc2c(c1)[I+]c1ccccc1-2
### Response inactive
